Data provenance is patent US12459967B2.

biological target: human CD73 (Homo sapiens, UniProt P21589); test: Inhibition of ecto-5′-nucleotidase (CD73) activity in CHO-CD73 cells, phosphate colorimetric readout; conditions: CHO-K1 cells stably transfected with human CD73, 2500 cells per well, 25 μM AMP substrate, 50 minutes incubation at 37° C.; read-out: Potency: CD73 IC50
MEASUREMENT_LABEL: IC50

1. C[C@H](Nc1nc(Cl)nc2c1cnn2[C@@H]1O[C@H](COP(=O)(O)CP(=O)(O)O)[C@@H](O)[C@@H]1F)c1ccc(F)cc1 :: < 100 nM
2. CC(COP(=O)(O)CP(=O)(O)O)n1cnc2c(NCc3ccccc3)ncnc21 (stereo not drawn) :: > 1000 nM
3. C[C@H](Nc1nc(Cl)nc2c1ccn2[C@@H]1O[C@H](COP(=O)(O)CP(=O)(O)O)[C@@H](O)[C@@H]1F)c1ccc(F)cc1 :: < 100 nM
4. CN(c1nc(Cl)nc2c1ncn2[C@@H]1O[C@H](COP(=O)(O)CP(=O)(O)O)[C@@H](O)[C@@H]1F)C1CCCC1 :: < 100 nM
5. CN(c1nc(Cl)nc2c1ncn2[C@@H]1O[C@H](COP(=O)(CP(=O)(Oc2ccccc2)Oc2ccccc2)Oc2ccccc2)[C@@H](O)[C@H]1O)C1CCCC1 (stereo partly drawn) :: > 1000 nM
6. Nc1nc(F)nc2c1ncn2[C@@H]1O[C@H](COP(=O)(O)CP(=O)(O)O)[C@@H](O)[C@@H]1O :: 100 to 1000 nM
7. O=P(O)(O)CP(=O)(O)OC[C@H]1O[C@@H](n2ncc3c(NC4CCCC4)nc(Cl)nc32)[C@H](O)[C@@H]1O :: < 100 nM
8. O=P(O)(O)CP(=O)(O)OC[C@H]1O[C@@H](n2ncc3c(NCc4ccccc4)nc(Cl)nc32)[C@H](O)[C@@H]1O :: < 100 nM

IC50 reading for CN(C)c1nc(NCc2ccccc2)c2ncn([C@@H]3O[C@H](COP(=O)(O)CP(=O)(O)O)[C@@H](O)[C@H]3O)c2n1 : < 100 nM

IC50 reading for CN(Cc1ccccc1)c1nc(Cl)nc2c1cnn2[C@@H]1O[C@H](COP(=O)(O)CP(=O)(O)O)[C@@H](O)[C@H]1O : < 100 nM

IC50 reading for COc1nc(NCc2ccccc2)c2ncn([C@@H]3O[C@H](COP(=O)(O)CP(=O)(O)O)[C@@H](O)[C@H]3O)c2n1 : < 100 nM

IC50 reading for C[C@H](Nc1nc(Cl)nc2c1ncn2[C@@H]1O[C@H](COP(=O)(O)CP(=O)(O)O)[C@@H](O)[C@@H]1F)c1ccc(F)cc1 : < 100 nM

IC50 reading for O=P(O)(O)CP(=O)(O)OC[C@H]1O[C@@H](n2cnc3c(NC4CCCC4)nc(Cl)nc32)[C@@H](F)[C@@H]1O : < 100 nM

IC50 reading for O=P(O)(O)CP(=O)(O)OC[C@H]1O[C@@H](n2cnc3c(NCc4ccc(C(F)(F)F)cc4)ncnc32)[C@H](O)[C@@H]1O : < 100 nM

IC50 reading for C[C@H](Nc1nc(Cl)nc2c1cnn2[C@@H]1O[C@H](COP(=O)(O)CP(=O)(O)O)[C@@H](O)[C@@H]1F)c1ccccc1 : < 100 nM

IC50 reading for C[C@H](Nc1nc(Cl)nc2c1cnn2[C@@H]1O[C@H](COP(=O)(O)CP(=O)(O)O)[C@@H](O)[C@@H]1F)c1cccc(F)c1 : < 100 nM

IC50 reading for C[C@H](Nc1nc(Cl)nc2c1cnn2[C@@H]1O[C@H](COP(=O)(O)CP(=O)(O)O)[C@@H](O)[C@@H]1F)c1ccccc1F : < 100 nM

IC50 reading for O=P(O)(O)CP(=O)(O)OC[C@H]1O[C@@H](n2cnc3c(NCc4cc(C(F)(F)F)cc(C(F)(F)F)c4)ncnc32)[C@H](O)[C@@H]1O : < 100 nM

IC50 reading for C[C@@H](Nc1nc(Cl)nc2c1cnn2[C@@H]1O[C@H](COP(=O)(O)CP(=O)(O)O)[C@@H](O)[C@H]1O)c1ccccc1F : < 100 nM

IC50 reading for CC(C)(C)CNc1nc(Cl)nc2c1ncn2[C@@H]1O[C@H](COP(=O)(O)CP(=O)(O)O)[C@@H](O)[C@H]1O : < 100 nM

IC50 reading for C[C@@H](Nc1nc(Cl)nc2c1ccn2[C@@H]1O[C@H](COP(=O)(O)CP(=O)(O)O)[C@@H](O)[C@@H]1F)c1ccc(F)cc1 : < 100 nM

----------
target: human CD73 (Homo sapiens, UniProt P21589); experiment: Inhibition of ecto-5′-nucleotidase (CD73) activity in CHO-CD73 cells, phosphate colorimetric readout; conditions: CHO-K1 cells stably transfected with human CD73, 2500 cells per well, 25 μM AMP substrate, 50 minutes incubation at 37° C.; read-out: Potency: CD73 IC50
We begin with a simple list: items and their reported IC50.

// solved cases for IC50 follow
1) O=P(O)(O)CP(=O)(O)OC[C@H]1O[C@@H](n2cnc3c(N4CCCCC4)nc(Cl)nc32)[C@@H](F)[C@@H]1O :: < 100 nM
2) O=P(O)(O)CP(=O)(O)OC[C@H]1O[C@@H](n2cnc3c(NC4CCCC4)nc(Cl)cc32)[C@H](O)[C@@H]1O :: < 100 nM
3) C=Cc1nc(NCc2ccccc2)c2ncn([C@@H]3O[C@H](COP(=O)(O)CP(=O)(O)O)[C@@H](O)[C@H]3O)c2n1 :: < 100 nM
4) C[C@H](Nc1nc(Cl)nc2c1cnn2[C@@H]1O[C@H](COP(=O)(O)CP(=O)(O)O)[C@@H](O)[C@H]1O)c1ccccc1F :: < 100 nM

IC50 reading for C[C@@H](Nc1nc(Cl)nc2c1cnn2[C@@H]1O[C@H](COP(=O)(O)CP(=O)(O)O)[C@@H](O)[C@@H]1F)c1ccccc1F : < 100 nM

IC50 reading for C[C@H](Nc1nc(Cl)nc2c1ccn2[C@@H]1O[C@H](COP(=O)(O)CP(=O)(O)O)[C@@H](O)[C@H]1O)c1ccc(F)cc1 : < 100 nM

IC50 reading for O=P(O)(O)CP(=O)(O)OC[C@H]1O[C@@H](n2ncc3c(NCCc4ccccc4Cl)nc(Cl)nc32)[C@H](O)[C@@H]1O : < 100 nM

----------
Target: human CD73 (Homo sapiens, UniProt P21589)
Sequence (P21589 27-549): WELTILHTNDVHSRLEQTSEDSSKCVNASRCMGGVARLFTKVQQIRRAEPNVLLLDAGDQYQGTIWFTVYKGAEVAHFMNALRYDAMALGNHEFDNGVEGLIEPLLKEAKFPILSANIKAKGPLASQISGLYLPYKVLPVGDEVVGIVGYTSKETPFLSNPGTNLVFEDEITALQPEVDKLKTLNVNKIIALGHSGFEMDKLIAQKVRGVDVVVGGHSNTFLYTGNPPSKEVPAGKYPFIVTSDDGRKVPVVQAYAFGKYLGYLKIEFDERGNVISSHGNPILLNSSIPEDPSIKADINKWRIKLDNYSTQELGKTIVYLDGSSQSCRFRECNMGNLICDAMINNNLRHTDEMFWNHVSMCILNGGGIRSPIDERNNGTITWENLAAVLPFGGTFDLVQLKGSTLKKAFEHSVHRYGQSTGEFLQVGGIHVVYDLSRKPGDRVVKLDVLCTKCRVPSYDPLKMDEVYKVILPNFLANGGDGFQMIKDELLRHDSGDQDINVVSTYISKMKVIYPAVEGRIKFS
Test: Inhibition of ecto-5′-nucleotidase (CD73) activity in CHO-CD73 cells, phosphate colorimetric readout
Conditions: CHO-K1 cells stably transfected with human CD73, 2500 cells per well, 25 μM AMP substrate, 50 minutes incubation at 37° C.; read-out: Potency: CD73 IC50
MEASUREMENT_LABEL: IC50

// solved cases for IC50 follow
1. O=P(O)(O)CP(=O)(O)OC[C@H]1O[C@@H](n2ncc3c(NC4CCCC4)cc(Cl)nc32)[C@@H](F)[C@@H]1O :: < 100 nM
2. CC(C)OC(=O)OCOP(=O)(O)CP(=O)(OCOC(=O)OC(C)C)OC[C@H]1O[C@@H](n2ncc3c(N[C@@H](C)c4ccccc4)nc(Cl)nc32)[C@H](O)[C@@H]1O (some centres unmarked) :: > 1000 nM
3. Cc1ccc(CNc2ncnc3c2ncn3[C@@H]2O[C@H](COP(=O)(O)CP(=O)(O)O)[C@@H](O)[C@H]2O)cc1 :: < 100 nM

Below: the item to evaluate.
Form field, IC50 with human CD73 (Homo sapiens, UniProt P21589), item COP(=O)(CP(=O)(O)OC[C@H]1O[C@@H](n2cnc3c(N(C)C4CCCC4)nc(Cl)nc32)[C@@H](F)[C@@H]1O)OC : > 1000 nM
